The values you see were collected from patent US4914110A.

ASSAY_OVERVIEW: solubility in dimethylsulfoxide
Format: physicochemical
MEASUREMENT_TYPE: solubility in dimethylsulfoxide

Please review the entries below; each comes with its answer.
Per the record, O=C(O)c1cn(CC2CC2)c2c(F)cc(F)cc2c1=O has solubility in dimethylsulfoxide of soluble

Per the record, O=C(O)c1cn(CCF)c2c(F)cc(F)cc2c1=O has solubility in dimethylsulfoxide of insoluble

Per the record, O=C(O)c1cn(CC2CCCCC2)c2c(F)cc(F)cc2c1=O has solubility in dimethylsulfoxide of insoluble

Per the record, CCn1cc(C(=O)O)c(=O)c2cc(F)cc(F)c21 has solubility in dimethylsulfoxide of soluble

Per the record, O=C(O)c1cn(Cc2c(Cl)cccc2Cl)c2c(F)cc(F)cc2c1=O has solubility in dimethylsulfoxide of insoluble

Further cases:
Per the record, O=C(O)c1cn(COCCO)c2c(F)cc(F)cc2c1=O has solubility in dimethylsulfoxide of soluble

Per the record, O=C(O)c1cn(Cc2ccc([N+](=O)[O-])o2)c2c(F)cc(F)cc2c1=O has solubility in dimethylsulfoxide of soluble
